Record: IC50 reported on JAK2 (Homo sapiens, UniProt O60674).
Sequence (O60674 whole entry): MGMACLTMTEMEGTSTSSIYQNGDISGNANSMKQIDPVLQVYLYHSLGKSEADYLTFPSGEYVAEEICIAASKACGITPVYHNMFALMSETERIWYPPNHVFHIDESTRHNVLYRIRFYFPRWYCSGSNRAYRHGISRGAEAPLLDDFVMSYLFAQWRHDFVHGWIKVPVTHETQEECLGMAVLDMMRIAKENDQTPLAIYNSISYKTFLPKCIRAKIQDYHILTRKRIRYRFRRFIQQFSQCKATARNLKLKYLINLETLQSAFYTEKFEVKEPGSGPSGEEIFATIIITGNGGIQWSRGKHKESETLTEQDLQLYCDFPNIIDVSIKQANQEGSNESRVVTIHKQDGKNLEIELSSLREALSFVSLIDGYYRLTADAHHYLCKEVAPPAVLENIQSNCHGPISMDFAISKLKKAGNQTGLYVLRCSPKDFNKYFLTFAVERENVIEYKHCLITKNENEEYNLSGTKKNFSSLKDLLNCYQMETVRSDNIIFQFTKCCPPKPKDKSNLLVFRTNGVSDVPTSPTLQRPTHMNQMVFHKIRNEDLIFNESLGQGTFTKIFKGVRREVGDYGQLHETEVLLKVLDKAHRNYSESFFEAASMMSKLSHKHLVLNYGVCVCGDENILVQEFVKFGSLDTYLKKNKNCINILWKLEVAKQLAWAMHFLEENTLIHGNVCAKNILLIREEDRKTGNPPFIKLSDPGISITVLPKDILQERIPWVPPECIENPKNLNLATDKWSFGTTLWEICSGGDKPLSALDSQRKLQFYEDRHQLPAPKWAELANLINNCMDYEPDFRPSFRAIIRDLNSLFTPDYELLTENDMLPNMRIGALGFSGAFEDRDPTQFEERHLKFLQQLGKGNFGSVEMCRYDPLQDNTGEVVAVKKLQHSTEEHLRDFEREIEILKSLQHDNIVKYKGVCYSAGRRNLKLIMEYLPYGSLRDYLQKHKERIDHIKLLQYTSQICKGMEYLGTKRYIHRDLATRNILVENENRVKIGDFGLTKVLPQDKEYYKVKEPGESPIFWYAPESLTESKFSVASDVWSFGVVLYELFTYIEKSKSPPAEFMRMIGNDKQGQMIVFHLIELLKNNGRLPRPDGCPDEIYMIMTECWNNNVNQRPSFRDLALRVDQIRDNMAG

O=C1NCCCCOCc2cccc(c2)Nc2nccc(n2)-c2ccc1cc2[N+](=O)[O-] | > 10000 nM
O=C1NCCCCOCc2cc(ccc2OCC2Cc3ccccc3O2)Nc2nccc(n2)-c2ccc1cc2[N+](=O)[O-] (stereo not drawn) | 1000 to 10000 nM
O=C1Nc2ccc(cc2)OCc2cc(ccc2Oc2cccnc2)Nc2nccc(n2)-c2ccc1cc2[N+](=O)[O-] | > 10000 nM
CC1CCNC(=O)c2ccc(c(N)c2)-c2ccnc(n2)Nc2ccc(OCC3COC3)c(c2)COC1 (stereo not drawn) | 101 to 1000 nM
CC1CCNC(=O)c2ccc(c(N)c2)-c2ccnc(n2)Nc2ccc(Oc3cccnc3)c(c2)COC1 (stereo not drawn) | 101 to 1000 nM

Fill in: IC50 of `C[C@H]1CCOCc2cc(ccc2OC2CCCC2)Nc2nccc(n2)-c2ccc(cc2N)C(=O)NC1` is ___
101 to 1000 nM

One more compound: `Cc1cc2ccc1-c1ccnc(n1)Nc1ccc(N3CCCCC3)c(c1)COCCCCNC2=O`
101 to 1000 nM

Thanks! And `Nc1cc2ccc1-c1ccnc(n1)Nc1cc(F)c(OC3CCOCC3)c(c1)COCCCCNC2=O` ?
101 to 1000 nM

Would you kindly repeat that for `O=C1Nc2ccc(cc2)OCc2cc(ccc2OCC2CC2)Nc2nccc(n2)-c2ccc1cc2[N+](=O)[O-]` ?
101 to 1000 nM

And `O=C1NCCCCOCc2cccc(c2)Nc2ncc(Cl)c(n2)-c2ccc1cc2Cl` ?
101 to 1000 nM

Now consider `O=C1Nc2ccc(cc2)OCc2cc(ccc2OC2CCCC2)Nc2nccc(n2)-c2ccc1cc2O` and answer again.
101 to 1000 nM

Next: CC1CCNC(=O)c2ccc(c([N+](=O)[O-])c2)-c2ccnc(n2)Nc2ccc(OCC3CCOC3)c(c2)COC1 (stereo not drawn)
1000 to 10000 nM

How about `O=C1NCCCCCCOCc2cc(ccc2N2CCOCC2)Nc2nccc(n2)-c2ccc1cc2[N+](=O)[O-]` ?
1000 to 10000 nM

What do you have for CC1CCOCc2cc(ccc2OC2CCCOC2)Nc2nccc(n2)-c2ccc(cc2[N+](=O)[O-])C(=O)NC1 (stereo not drawn) ?
101 to 1000 nM
